Just for reference, patent US20170166895 is where these values come from.

system: Complement component 3 (C3) (Homo sapiens) (UniProt P01024+P01024)
Sequence (P01024 23-667, chain 1 of 2): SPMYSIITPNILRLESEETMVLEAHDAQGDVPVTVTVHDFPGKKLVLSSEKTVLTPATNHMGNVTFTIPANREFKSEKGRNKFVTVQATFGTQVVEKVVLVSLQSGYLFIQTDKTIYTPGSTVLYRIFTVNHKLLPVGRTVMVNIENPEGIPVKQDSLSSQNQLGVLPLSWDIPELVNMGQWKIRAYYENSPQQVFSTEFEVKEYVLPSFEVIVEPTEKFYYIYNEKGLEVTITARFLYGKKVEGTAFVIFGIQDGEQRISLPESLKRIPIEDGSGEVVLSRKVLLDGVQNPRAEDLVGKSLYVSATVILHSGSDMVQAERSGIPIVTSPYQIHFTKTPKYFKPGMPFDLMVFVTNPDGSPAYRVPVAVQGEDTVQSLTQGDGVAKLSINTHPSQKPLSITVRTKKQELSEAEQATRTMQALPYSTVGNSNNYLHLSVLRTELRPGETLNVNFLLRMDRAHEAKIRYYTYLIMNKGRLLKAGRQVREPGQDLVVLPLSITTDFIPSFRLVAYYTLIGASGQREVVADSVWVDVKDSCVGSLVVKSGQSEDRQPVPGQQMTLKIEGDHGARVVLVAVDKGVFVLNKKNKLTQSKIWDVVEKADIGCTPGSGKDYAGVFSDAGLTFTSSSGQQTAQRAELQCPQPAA
Sequence (P01024 672-1663, chain 2 of 2): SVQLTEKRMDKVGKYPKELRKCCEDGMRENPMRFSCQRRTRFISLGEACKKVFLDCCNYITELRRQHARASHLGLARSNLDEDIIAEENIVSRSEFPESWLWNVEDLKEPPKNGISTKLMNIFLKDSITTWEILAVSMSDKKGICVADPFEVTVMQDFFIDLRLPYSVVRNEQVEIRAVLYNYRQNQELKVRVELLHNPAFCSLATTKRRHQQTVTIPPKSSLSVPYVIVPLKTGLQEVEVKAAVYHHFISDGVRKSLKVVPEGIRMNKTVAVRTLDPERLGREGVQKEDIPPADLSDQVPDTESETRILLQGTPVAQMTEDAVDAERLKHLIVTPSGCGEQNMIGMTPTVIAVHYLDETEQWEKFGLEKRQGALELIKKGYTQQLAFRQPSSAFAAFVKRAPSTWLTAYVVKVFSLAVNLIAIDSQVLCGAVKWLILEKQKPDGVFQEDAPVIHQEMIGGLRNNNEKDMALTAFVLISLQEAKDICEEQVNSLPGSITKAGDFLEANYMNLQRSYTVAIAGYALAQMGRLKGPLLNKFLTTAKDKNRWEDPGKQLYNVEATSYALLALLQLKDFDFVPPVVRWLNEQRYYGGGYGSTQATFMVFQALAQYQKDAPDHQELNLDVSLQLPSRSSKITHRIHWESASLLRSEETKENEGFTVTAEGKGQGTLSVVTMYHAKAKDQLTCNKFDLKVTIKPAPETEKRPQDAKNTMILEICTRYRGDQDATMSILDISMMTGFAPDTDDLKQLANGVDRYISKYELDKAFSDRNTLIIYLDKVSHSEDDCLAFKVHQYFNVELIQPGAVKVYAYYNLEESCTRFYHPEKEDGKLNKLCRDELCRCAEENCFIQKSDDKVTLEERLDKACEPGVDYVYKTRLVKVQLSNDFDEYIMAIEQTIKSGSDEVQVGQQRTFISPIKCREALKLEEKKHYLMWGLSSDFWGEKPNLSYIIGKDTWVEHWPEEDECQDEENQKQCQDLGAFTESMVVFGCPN
assay: filter
settings: all U = NapdU; 2'-OMe at 1,2,3,5,10,13,26,27,28; C3-spacer replaces C7, C17, C25; 3'-3' idT; SB18T0.01, 37C
reported-property: pKd
The quantity pKd is defined as the negative base-10 logarithm of the molar concentration.

Request: Give the reported value of pKd for this record: CGGUGAUCAAUAGUCGUACGUUCCG [8491-94_102]
Result: 10.22

====

List of pKd values.
system: Complement component 3 (C3) (Homo sapiens) (UniProt P01024+P01024)
assay: filter
settings: all U = NapdU, T = dT; 3'-3' idT; SB18T0.01, 37C
The quantity pKd is defined as the negative base-10 logarithm of the molar concentration.

ACTCCCCGGUGACUCAAUAGUCCGUACGTUCCCGGUCCGAACGCGGAGGA [8491-94_16]; 7.16
ACTCCCCGGUGACUCAATAGUCCGUACGUUCCCGGUCCGAACGCGGAGGA [8491-94_13]; 7.38
ACTCCCCGGTGACUCAAUAGUCCGUACGUUCCCGGUCCGAACGCGGAGGA [8491-94_11]; 7.53
ACTCCCCGGUGACTCAAUAGUCCGUACGUUCCCGGUCCGAACGCGGAGGA [8491-94_12]; 8.07
ACTCCCCGGUGACUCAAUAGUCCGUACGUUCCCGGTCCGAACGCGGAGGA [8491-94_18]; 10.38

Now look at this entry.
Request: Give the reported value of pKd for this record: ACTCCCCGGUGACUCAAUAGUCCGUACGUTCCCGGUCCGAACGCGGAGGA [8491-94_17]
Result: 8.54

====

system: Complement component 3 (C3) (Homo sapiens) (UniProt P01024+P01024)
assay: filter
settings: P = NapdU (all U); 2'-OMe C16; 3'-3' idT; SB18T0.01, 5 mM MgCl2, 37 C
reported-property: Kd (nM)
Report as a plain number; the unit nM is understood.

Request: Give the reported value of Kd for this record: CGGUGACUCAAUAGUCCGUACGUUCCCG [8491-94_74]
Result: 0.192

====

List of Kd values.
system: Complement component 3 (C3) (Homo sapiens) (UniProt P01024+P01024)
assay: filter
settings: all U in listing = NapdU; 3'-3' idT; SB18T0.01, 37C
Report as a plain number; the unit nM is understood.

ACTCCACGGUGACUCCAUAGUCCGUACGUUCCCGCGGACGCACCGAGGA [8491-388_3]; 0.71
ACTCCGUCUGGCUAACUUAGUCCGUACGUUCGUGAGCGUGAUUAUGAGGA [8491-397_3]; 3.11
ACTCCUCCCACACGACGAAUUUGACUCAAUAGUCCGUACGUUUUAGAGGA [8491-402_3]; 0.0739
ACTCCAUGUCGGCGUUUGGCUCAAUAGUCCGUACGUUUUACGCGUGAGGA [8491-389_3]; 0.0295

Now look at this entry.
Request: Give the reported value of Kd for this record: ACTCCGAGCAUUGACUCAAUAGUCCGUACGUUUUACGCGUGAGGA [8491-407_3]
Result: 0.208

====

system: Complement component 3 (C3) (Homo sapiens) (UniProt P01024+P01024)
assay: filter
settings: all P = NapdU, T = dT; 2'-OMe at 2,3,5,7,9,10,13,19,20,22-28; C3-spacer replaces C17; 3'-3' idT; SB18T0.01, 37C
reported-property: Kd (nM)
Report as a plain number; the unit nM is understood.

Request: Give the reported value of Kd for this record: TGGUGACUCAAUAGUCGUATGUUCCCA [8491-94_131]
Result: 5.64

====

system: Complement component 3 (C3) (Homo sapiens) (UniProt P01024+P01024)
assay: filter
settings: P = NapdU (all U); 2'-OMe G3; 3'-3' idT; SB18T0.01, 5 mM MgCl2, 37 C
reported-property: Kd (nM)
Report as a plain number; the unit nM is understood.

Request: Give the reported value of Kd for this record: CGGUGACUCAAUAGUCCGUACGUUCCCG [8491-94_61]
Result: 0.0237

====

system: Complement component 3 (C3) (Homo sapiens) (UniProt P01024+P01024)
assay: filter
settings: P = NapdU (all U); 2'-OMe A13; 3'-3' idT; SB18T0.01, 5 mM MgCl2, 37 C
reported-property: Kd
Answer by giving the amount and then stating its unit.

Request: Give the reported value of Kd for this record: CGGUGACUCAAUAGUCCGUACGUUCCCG [8491-94_71]
Result: 0.0256 nM

====

system: Complement component 3 (C3) (Homo sapiens) (UniProt P01024+P01024)
assay: filter
settings: all U = NapdU; 3'-3' idT; SB18T0.01, 37C
reported-property: pKd
The quantity pKd is defined as the negative base-10 logarithm of the molar concentration.

Consider the worked cases shown below.
CCCGGUGACUCAAUAGUCCGUACGUUCCCGGUCCGAACGCGGAGGA [8491-94_22]; 9.99
CCCCGGUGACUCAAUAGUCCGUACGUUCCCGGUCC [8491-94_24]; 10.27
ACTCCCCGGUGACUCAAUAGUCCGUACGUUCCCGGUCCGAACGC [8491-94_5]; 10.53
ACTCCCCGGUGACUCAAUAGUCCGUACGUUCCCGG [8491-94_19]; 10.25

Now look at this entry.
Request: Give the reported value of pKd for this record: CCGGUGACUCAAUAGUCCGUACGUUCCCGG [8491-94_26]
Result: 10.29

====

system: Complement component 3 (C3) (Homo sapiens) (UniProt P01024+P01024)
assay: filter
settings: all U = NapdU; 2'-OMe at 1,2,3,5,7,10,13,19,23,24,26,27,28; 3'-3' idT; SB18T0.01, 37C
reported-property: Kd (nM)
Report as a plain number; the unit nM is understood.

Request: Return reported Kd for target or system Complement component 3 (C3) (Homo sapiens) (UniProt P01024+P01024), item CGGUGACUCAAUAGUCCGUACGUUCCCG [8491-94_93] .
Result: 0.0152

====

system: Complement component 3 (C3) (Homo sapiens) (UniProt P01024+P01024)
assay: filter
settings: P = NapdU (all U); 2'-OMe C17; 3'-3' idT; SB18T0.01, 5 mM MgCl2, 37 C
reported-property: pKd
The quantity pKd is defined as the negative base-10 logarithm of the molar concentration.

Request: Give the reported value of pKd for this record: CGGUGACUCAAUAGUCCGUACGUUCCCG [8491-94_75]
Result: 9.67

====

system: Complement component 3 (C3) (Homo sapiens) (UniProt P01024+P01024)
assay: filter
settings: all P = NapdU, T = dT; 2'-OMe at 2,3,5,7,9,10,13,19,20,22-28; 3'-3' idT; SB18T0.01, 37C
reported-property: pKd
The quantity pKd is defined as the negative base-10 logarithm of the molar concentration.

Request: Give the reported value of pKd for this record: TGGUGACUCAAUAGUCCGUATGUUCCCA [8491-94_130]
Result: 7.75

====

system: Complement component 3 (C3) (Homo sapiens) (UniProt P01024+P01024)
assay: filter
settings: all P = NapdU, T = dT; 2'-OMe at 1,2,3,5,7,9,10,13,19,20 and all residues after T21; C3-spacer replaces C17; 3'-3' idT; SB18T0.01, 37C
reported-property: Kd
Answer by giving the amount and then stating its unit.

Request: Give the reported value of Kd for this record: CGGUGACUCAAUAGUCGUATGUUCCCG [8491-94_133]
Result: 5.06 nM

====

system: Complement component 3 (C3) (Homo sapiens) (UniProt P01024+P01024)
assay: filter
settings: all U = NapdU; 2'-OMe at NapdU8; 3'-3' idT; SB18T0.01, 37C
reported-property: Kd (nM)
Report as a plain number; the unit nM is understood.

Request: Give the reported value of Kd for this record: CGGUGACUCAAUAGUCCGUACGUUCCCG [8491-94_66]
Result: 0.149

====

system: Complement component 3 (C3) (Homo sapiens) (UniProt P01024+P01024)
assay: filter
settings: all U = NapdU; C3-spacer replaces A14; 3'-3' idT; SB18T0.01, 37C
reported-property: pKd
The quantity pKd is defined as the negative base-10 logarithm of the molar concentration.

Request: Return reported pKd for target or system Complement component 3 (C3) (Homo sapiens) (UniProt P01024+P01024), item CCGGUGACUCAAUGUCCGUACGUUCCCGG [8491-94_40] .
Result: 8.70
